Catalogue of inhibition at 0.1 µM values
systemTested: 5-HT2c (Homo sapiens)
Sequence (P28335 33-458): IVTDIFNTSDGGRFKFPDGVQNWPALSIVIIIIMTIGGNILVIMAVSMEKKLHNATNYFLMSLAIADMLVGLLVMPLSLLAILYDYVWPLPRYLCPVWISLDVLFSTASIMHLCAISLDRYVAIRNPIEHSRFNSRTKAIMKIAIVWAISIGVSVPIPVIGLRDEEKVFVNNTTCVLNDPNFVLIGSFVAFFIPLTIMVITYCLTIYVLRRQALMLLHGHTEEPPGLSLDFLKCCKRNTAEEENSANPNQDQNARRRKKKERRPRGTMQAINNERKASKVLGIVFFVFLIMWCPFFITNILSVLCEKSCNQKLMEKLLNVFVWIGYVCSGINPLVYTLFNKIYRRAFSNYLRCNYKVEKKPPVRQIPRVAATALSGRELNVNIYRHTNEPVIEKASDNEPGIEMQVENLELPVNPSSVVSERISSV
protocolDescription: 5-HT2c receptor binding assay
reportedConditions: 100 nM compound; read-out: % inhibition of control specific at 100 nM conc.
// return numeric value only (unit: %, not printed)

Cc1cccc(O[C@@H]2CCNC[C@@H]2O)c1C :: -17
Cc1cccc(O[C@H]2CCNC[C@H]2O)c1C :: 4
Cc1cccc(O[C@@H]2CCNC[C@H]2O)c1C :: -11

q: Look up and state reported inhibition at 0.1 µM for Cc1cccc(O[C@H]2CCNC[C@@H]2O)c1C
a: 7

----------
systemTested: UniProt P46098
Sequence (P46098 24-478): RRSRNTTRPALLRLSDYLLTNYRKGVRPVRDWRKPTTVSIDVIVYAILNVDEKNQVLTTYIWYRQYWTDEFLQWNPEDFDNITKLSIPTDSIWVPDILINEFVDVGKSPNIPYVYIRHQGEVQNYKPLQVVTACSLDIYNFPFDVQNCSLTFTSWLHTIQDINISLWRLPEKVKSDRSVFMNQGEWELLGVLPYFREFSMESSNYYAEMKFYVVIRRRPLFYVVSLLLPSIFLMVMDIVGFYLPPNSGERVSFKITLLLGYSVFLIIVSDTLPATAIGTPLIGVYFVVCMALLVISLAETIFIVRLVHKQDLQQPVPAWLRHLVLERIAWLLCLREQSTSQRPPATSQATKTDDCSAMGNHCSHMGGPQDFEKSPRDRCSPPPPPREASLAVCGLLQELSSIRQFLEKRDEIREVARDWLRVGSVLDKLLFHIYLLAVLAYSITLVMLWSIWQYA
protocolDescription: 5-HT3 receptor binding assay
reportedConditions: 100 nM compound; read-out: % inhibition of control specific at 100 nM conc.
measureName: inhibition at 0.1 µM (%)
Report only the number, with the unit % understood.

Use these answered entries as a reference point.
Cc1cccc(O[C@H]2CCNC[C@@H]2O)c1C :: 5
Cc1cccc(O[C@@H]2CCNC[C@@H]2O)c1C :: 11
Cc1cccc(O[C@@H]2CCNC[C@H]2O)c1C :: 4

q: Indicate the recorded inhibition at 0.1 µM value for this compound: Cc1cccc(O[C@H]2CCNC[C@H]2O)c1C
a: 6

----------
systemTested: NE uptake (Homo sapiens, UniProt P23975)
Sequence (P23975 whole entry): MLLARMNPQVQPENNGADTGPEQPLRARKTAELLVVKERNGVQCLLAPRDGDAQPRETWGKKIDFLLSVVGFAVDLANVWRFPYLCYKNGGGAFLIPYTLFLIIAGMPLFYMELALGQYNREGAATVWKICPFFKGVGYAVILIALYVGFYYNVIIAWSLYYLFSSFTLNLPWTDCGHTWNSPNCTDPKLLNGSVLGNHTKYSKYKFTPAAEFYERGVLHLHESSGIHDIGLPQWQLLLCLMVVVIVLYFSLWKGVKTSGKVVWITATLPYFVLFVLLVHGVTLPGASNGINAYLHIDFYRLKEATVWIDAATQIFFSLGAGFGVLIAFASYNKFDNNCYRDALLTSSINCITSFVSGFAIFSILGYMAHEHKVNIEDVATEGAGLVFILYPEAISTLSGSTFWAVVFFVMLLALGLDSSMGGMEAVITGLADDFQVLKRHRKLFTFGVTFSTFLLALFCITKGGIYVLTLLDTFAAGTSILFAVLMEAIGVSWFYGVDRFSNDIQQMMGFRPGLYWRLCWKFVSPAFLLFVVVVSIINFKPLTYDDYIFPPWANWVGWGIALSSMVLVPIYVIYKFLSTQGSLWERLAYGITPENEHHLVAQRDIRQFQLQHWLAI
protocolDescription: NE uptake binding assay
reportedConditions: 100 nM compound; read-out: % inhibition of control specific at 100 nM conc.
measureName: inhibition at 0.1 µM

Cc1cccc(O[C@H]2CCNC[C@H]2O)c1C :: 3%

q: Please supply the value of reported inhibition at 0.1 µM for the item Cc1cccc(O[C@@H]2CCNC[C@@H]2O)c1C
a: 8%

q: Query inhibition at 0.1 µM for Cc1cccc(O[C@@H]2CCNC[C@H]2O)c1C
a: -9%

q: Give the measured inhibition at 0.1 µM for Cc1cccc(O[C@H]2CCNC[C@@H]2O)c1C
a: 4%
